# Test system: T47D (Ductal carcinoma of breast)
# measurement_protocol: In vitro cytotoxicity, microculture tetrazolium (MTT) assay, T47D
# Assay type: cell-based, Human
# condition_context: Homo sapiens, 48 h with compound, further 48 h, Table 1
# Method: The microculture tetrazolium assay was used to test in vitro cytotoxicity. This assay is described in Plumb, J. A. et al., 1989 Cancer Research 49, 4435-4440, which is herein incorporated by reference. The cytotoxicity of compounds towards tumor cells is measured in vitro using the assay. […]
pIC50: −log10 of the molar value. Where a name gives a salt, the structure may show the parent alone.
Think of 5 as a floor: if pIC50 stands on it or above, it is Fulfilled; beneath it, Not fulfilled.

See these solved cases before continuing.
CO[C@@H]1O[C@H](C(=O)O)CC2=C1C(=O)c1ccccc1C2=O (relative stereo)	Not fulfilled
CC(=O)C1CC2=C(CO1)C(=O)c1ccc(O)cc1C2=O (stereo not shown)	Not fulfilled
CCCC1OC(C(=O)NCCCN(C)C)=CC2=C1C(=O)c1ccccc1C2=O (stereo not shown)	Fulfilled

Q) Threshold query (pIC50 >= 5) on CC(=O)C1CC2=C(C(=O)c3ccccc3C2=O)C(OCC2CCCN(C(=O)OC(C)(C)C)C2)O1 (mixture of isomers)
A) Fulfilled

Q) In plain terms: is recorded pIC50 at least 5 for CC[C@H]1CC2=C(C(=O)c3ccccc3C2=O)[C@H](O[C@H]2C[C@H](N)[C@H](O)[C@H](C)O2)O1 [BCH2021, hydrochloride] ?
A) Not fulfilled

Q) Does CC[C@H]1CO[C@H](O[C@H]2C[C@H](NC(=O)C(F)(F)F)[C@H](O)[C@H](C)O2)C2=C1C(=O)c1ccccc1C2=O have a reported pIC50 of at least 5?
A) Not fulfilled

Q) API: above_or_equal(metric=pIC50, cutoff=5) for item COC(=O)[C@@]1(C)CC2=C(C(=O)c3ccccc3C2=O)[C@H](O[C@H]2C[C@H](NC(=O)C(F)(F)F)[C@H](O)[C@H](C)O2)O1
A) Fulfilled

Q) Does the compound COC(=O)[C@@H](N)COC1OC(C(C)=O)CC2=C1C(=O)c1ccccc1C2=O (mixture of isomers) [BCH1654, hydrochloride] have recorded pIC50 that is 5 or more?
A) Fulfilled

Q) Entry CC(=O)O[C@@H]1[C@H](C)O[C@@H](OC2OC(C(C)=O)CC3=C2C(=O)c2ccccc2C3=O)C[C@@H]1OC(C)=O (mixture of isomers) : is its pIC50 no less than 5?
A) Fulfilled

Q) Determine whether this compound has pIC50 no lower than 5: COC1OC(C(=O)Nc2ccccc2)=CC2=C1C(=O)c1ccccc1C2=O (stereo not shown)
A) Fulfilled

Q) Entry CC(=O)[C@@]1(C)CC2=C(C(=O)c3ccccc3C2=O)[C@H](O[C@H]2C[C@H](NC(=O)C(F)(F)F)[C@H](O)[C@H](C)O2)O1 : is its pIC50 no less than 5?
A) Fulfilled
